// Ka lookup, one value per entry
# SYSTEM UNDER TEST: Estrogen receptor (Rattus norvegicus) (UniProt P06211+Q62986)
# PROTOCOL NOTES: In vitro affinity for rat Estrogen receptor
# Type: protein assay
Give only the figure.

CNC(c1c(Cl)cccc1Cl)C(NC)c1c(Cl)cccc1Cl (stereo in doubt); 91000
CN1CN(C)C(c2c(Cl)cccc2Cl)C1c1c(Cl)cccc1Cl (stereo in doubt; trans); 480000

The molecule listed as CCCN1CN(CCC)C(c2c(Cl)cccc2Cl)C1c1c(Cl)cccc1Cl (stereo in doubt) has a reported Ka of 320000

The molecule listed as CCN1CN(CC)C(c2c(Cl)cccc2Cl)C1c1c(Cl)cccc1Cl (cis isomer) has a reported Ka of 200000
